biological target: Nuclear receptor subfamily 1 group I member 3 (Homo sapiens) (UniProt Q14994); assay: qHTS assay to identify small molecule antagonists of the constitutive androstane receptor (CAR) signaling pathway (AID 1224838); settings: HepG2-CYP2B6-hCAR luciferase, CITCO-stimulated, 24 h; series mostly up to 92.4 µM;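 note: HepG2 cells stably expressing hCAR with CYP2B6 luciferase reporter stimulated by CITCO; nearly all actives have a fitted effect of over 40% in size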
Sequence (Q14994 whole entry, looked up): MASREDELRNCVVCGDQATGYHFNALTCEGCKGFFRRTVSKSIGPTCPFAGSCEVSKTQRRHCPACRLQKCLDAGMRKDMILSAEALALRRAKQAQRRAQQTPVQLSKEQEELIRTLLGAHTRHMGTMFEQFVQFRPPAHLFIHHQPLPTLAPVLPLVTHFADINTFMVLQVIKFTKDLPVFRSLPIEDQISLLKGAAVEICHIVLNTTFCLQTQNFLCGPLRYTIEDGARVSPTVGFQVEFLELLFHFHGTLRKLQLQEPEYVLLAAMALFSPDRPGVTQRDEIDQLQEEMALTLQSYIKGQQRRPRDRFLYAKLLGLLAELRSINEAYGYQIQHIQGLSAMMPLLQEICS
Results filed as inconclusive are left out. The source made the active and inactive calls. Calls come from the whole dose curve; as a rule, active = well fitted inhibition curve with a large enough effect in the repeat runs; inconclusive = weak or mixed curves, or effect the other way; inactive = no such curve, though single readings can be large or run the other way.
Outcomes: y = active, n = inactive

- Compound: "C=CC(=O)OCC(CO)(COCC(COC(=O)C=C)(COC(=O)C=C)COC(=O)C=C)COC(=O)C=C"
  Assigned Class: "y"
- Compound: "CCCCC(CC)COP(=O)(O)OCC(CC)CCCC (stereo unspecified)"
  Assigned Class: "n"
- Compound: "Nc1nc2ccccc2n1Cc1ccc(F)cc1"
  Assigned Class: "n"
- Compound: "Fc1ccc([C@@H]2CCNC[C@H]2COc2ccc3c(c2)OCO3)cc1"
  Assigned Class: "n"
- Compound: "CCCC(c1cc(C(C)(C)C)c(O)cc1C)c1cc(C(C)(C)C)c(O)cc1C"
  Assigned Class: "y"
- Compound: "CCCCN(CCCC)C(=O)N(CCCC)CCCC"
  Assigned Class: "n"
